# drug effect values compiled below
- System: Schistosoma mansoni schistosomula (Liberian)
- MEASUREMENT_DESCRIPTION: drug effect (1 - score/DMSO control score) (fraction); higher = more antischistosomal effect, active = 0.5 or more; extreme values may be limits of the assay
- SETUP_CONDITIONS: 48 h; 10 µM
API note: the answer field is a bare number with no unit suffix.

Look over these answered cases.
> print(dat)
                                   compound                       experimental.system  outcome.measure  numeric.readout
1  CC(=O)Nc1ccc(-c2noc(CC3CCCN(Cc4cccc(F)c4C)C3)n2)cc1 (stereo unspecified)  Schistosoma mansoni schistosomula (Liberian)      drug effect           0.0556
2  COc1cccc(CC(=O)N2CCC(n3c(C)nc4ccc(F)cc43)CC2)c1  Schistosoma mansoni schistosomula (Liberian)      drug effect            0.405
3  CCS(=O)(=O)N(Cc1ccco1)Cc1cc2ccc(C)cc2nc1O  Schistosoma mansoni schistosomula (Liberian)      drug effect            0.333
4  Cc1ccc2c(c1C)NC(=O)C21NN=C(c2ccccc2)S1 (stereo unspecified)  Schistosoma mansoni schistosomula (Liberian)      drug effect            0.135
5  O=C(C(Cc1c[nH]c2ccccc12)NS(=O)(=O)c1ccc(Cl)cc1)N1CCCCC1 (stereo unspecified)  Schistosoma mansoni schistosomula (Liberian)      drug effect           0.0811
6    Cc1ccc(-c2nc(CN(Cc3ccccn3)C(C)C)cs2)o1  Schistosoma mansoni schistosomula (Liberian)      drug effect            0.222

The value of drug effect measured for the compound CCOc1ccc2cc(-c3nn(C(C)(C)C)c(N)c3C(N)=O)cnc2c1 turned out to be 0.243

GET /value?item= CC(C)(C)n1nc(-c2ccccc2)c2c(N)ncnc21 &field=drug effect returns 0.2

The recorded drug effect for entry Clc1cccc(C(c2ccc(CN3CCNCC3)cc2)n2ccnc2)c1 (stereo unspecified) equals 0.667

Query FC(F)(F)c1cc(NCCc2ccccc2)nc(-c2ccccn2)n1 yields drug effect of 0.514

The recorded drug effect for Cc1nc(-c2ccccn2)nc(NCCc2ccc(S(C)(=O)=O)cc2)c1Cl is 0.167

* * *

- Tested on: Schistosoma mansoni schistosomula (Liberian)
- MEASUREMENT_DESCRIPTION: drug effect (1 - score/DMSO control score) (fraction); higher = more antischistosomal effect, active = 0.5 or more; extreme values may be limits of the assay
- SETUP_CONDITIONS: 24 h; 10 µM
OUTCOME_MEASURE: drug effect

Examples with their reported drug effect follow.
> print(dat)
                                   molecule  outcome.measure             result
1  O=C(Nc1ccccc1)c1ccc(-c2cc3ccncc3cc2OC2CCNCC2)s1      drug effect    0.15 (inactive)
2  CC(C)(C)C(=O)N(CCCCCCN1C[C@H](O)[C@@H](O)[C@H](O)[C@H]1CO)C1CCCCCC1      drug effect    0.25 (inactive)
3  CCOc1ccccc1C(=O)Nc1cccc(-c2nc3ncccn3c2C)c1      drug effect  0.0811 (inactive)
4          CC(C)(C)c1cnc(NC(=O)c2ccccc2O)s1      drug effect         1 (active)

Please fill in: drug effect reported for CN1CCN(S(=O)(=O)c2ccc(-c3ccc4c(Nc5ccc6nn[nH]c6c5)ccnc4c3)cc2)CC1 = 0.1 (inactive)

Lab note: CCCCN(CCCC)c1c(C#N)cc(S(=O)(=O)Nc2ccccc2)cc1C#N gave drug effect of 0.15 (inactive)

response.value for Cc1nc(-c2ccccn2)nc(N(C)CCc2ccccc2)c1Cl (field: drug effect) = < 0 (inactive)

The reported value for CC(C(=O)Nc1ccc2oc(-c3ccncc3)nc2c1)c1ccccc1 (stereo not given) in terms of drug effect is 0.182 (inactive)

// sample O=C(c1cc2ccccc2o1)N1CCN(Cc2ccc3c(c2)OCO3)CC1 , its drug effect was 0.182 (inactive)

Quick note, drug effect for Cc1ccc2cc(C3NC(=O)c4ccccc4N3)c(Cl)nc2c1 (stereo not given) landed at 0.05 (inactive)
